assay: qHTS for Antagonists of gsp, the Etiologic Mutation Responsible for Fibrous Dysplasia/McCune-Albright Syndrome: qHTS; conditions: gsp-mutant cells, cAMP HTRF, 30 min; series mostly up to 76.9 µM; further: nearly all actives have a fitted effect of over 65% in size; further: potency means the concentration at half of the fitted maximal effect
Out of some 340,000 compounds screened, about 1,400 (0.41%) were called active. Inconclusive results (about 4%) are left out. This is one part of a sample in which actives are shown more often than they occur.
Measured attribute: Potency

O=[N+]([O-])c1ccc(N=NNc2ccc([N+](=O)[O-])cc2)cc1 = inactive
O=C1NCC(Nc2ccccc2)C(=O)N1 (configuration not stated) = inactive
COc1ccc(CCN2CC(C(=O)OCC(=O)NCc3ccccc3Cl)CC2=O)cc1OC (configuration not stated) = inactive
COc1ccc(S(=O)(=O)N2C[C@H]3CON(C)[C@H]3C[C@H]2c2cccc(Br)c2)cc1 = inactive
COc1ccc(Nc2ccc3ccccc3c2)cc1 = inactive
CN(C)C(=S)N=c1ssc(=S)n1Cc1ccco1 = inactive

Below is a list of molecules. For each, state its recorded Potency.
1. O=c1c2ccccc2ncn1CCc1ccncc1
2. N#Cc1c(-c2ccccc2)nc(SCc2cccc(C(F)(F)F)c2)[nH]c1=O
3. CCN(C(=O)C1CCCN(c2nc(-c3ccc(OC)cc3)no2)C1)c1ccc(OC)cc1 (configuration not stated)
4. CC1C(C)N(C(=O)CCl)c2ccccc2N1C(=O)CCl (configuration not stated)
5. COc1ccc(CNCCCn2cnc3c(OCc4ccccc4)ncnc32)cc1
6. O=C(NN=CC=Cc1ccccc1)C(O)C(O)C(=O)NN=CC=Cc1ccccc1 (configuration not stated)

1: inactive; 2: 50.1 µM (active); 3: 35.5 µM (active); 4: inactive; 5: inactive; 6: inactive
